This section presents compounds with their documented MIC values.
# System: Escherichia coli
# method.notes: Antibacterial activity against Escherichia coli ATCC 25922 after 24 hrs by broth microdilution method
# Type: functional
# test.settings: ATCC 25922, 24 h
measure: MIC (µg/mL)

chemical.structure	target.entity	measure	comparator	reported.value
Cc1cc(O)c(C(=O)CCCCC(=O)Nc2c3sscc-3[nH]c2=O)c(=O)o1	Escherichia coli	MIC	=	128
CO[C@H]1/C=C/O[C@@]2(C)Oc3c(C)c(O)c4c(O)c(c(/C=N/N5CCN(C)CC5)c(O)c4c3C2=O)NC(=O)/C(C)=C\C=C\[C@H](C)[C@H](O)[C@@H](C)[C@@H](O)[C@@H](C)[C@H](OC(C)=O)[C@@H]1C	Escherichia coli	MIC	=	8
Cc1cc(O)c(C(=O)CCCCCCCC(=O)Nc2c3sscc-3[nH]c2=O)c(=O)o1	Escherichia coli	MIC	≥	256
CCCCCCCCC(=O)c1c(O)cc(C)oc1=O	Escherichia coli	MIC	=	128

----------
# Test system: Candida albicans
# method.notes: Antifungal activity against Candida albicans ATCC 10231 after 48 hrs by broth microdilution method
# Format: functional
# test.settings: ATCC 10231, 48 h

compound	comparator	MIC / µg/mL
CO[C@H]1/C=C/O[C@@]2(C)Oc3c(C)c(O)c4c(O)c(c(/C=N/N5CCN(C)CC5)c(O)c4c3C2=O)NC(=O)/C(C)=C\C=C\[C@H](C)[C@H](O)[C@@H](C)[C@@H](O)[C@@H](C)[C@H](OC(C)=O)[C@@H]1C [RIFAMPIN]	≥	256
CCCCCCCCC(=O)c1c(O)cc(C)oc1=O	=	64
Cc1cc(O)c(C(=O)CCCCC(=O)Nc2c3sscc-3[nH]c2=O)c(=O)o1	=	128
Cc1cc(O)c(C(=O)CCCCCCCC(=O)Nc2c3sscc-3[nH]c2=O)c(=O)o1	≥	256

The measurements presented in this section are drawn from ChEMBL document CHEMBL2321743.
